test system: Caco-2 cell monolayer; experiment: Caco-2 monolayer transport (bioavailability) study, AB and BA directions; assay type: in vitro ADME, Homo sapiens; settings: BA experiment, acceptor side, S2 (22 mg/mL GSE), 180 min
Marks after values point to notes of the source that are not given here.
Reported Apical Side 180 min is given for each of the following compounds.

See these solved cases before continuing.
compound	Apical Side 180 min
O=c1c(O[C@@H]2O[C@H](CO)[C@@H](O)[C@H](O)[C@H]2O)c(-c2ccc(O)cc2)oc2cc(O)cc(O)c12 [K3G, kaempferol-3-glucoside]	10.6 ± 0.3 ^c mg/L
O=C(O)c1cc(O)c(O)c(O)c1	11.5 ± 0.7 ^c mg/L
COc1cc(-c2[o+]c3cc(O)cc(O)c3cc2O[C@@H]2O[C@H](CO)[C@@H](O)[C@H](O)[C@H]2O)cc(OC)c1O [M3G, malvidin-3-O-glucoside]	0.30 ± 0.01 ^c mg/L
O=C(/C=C/c1ccc(O)c(O)c1)O[C@@H](C(=O)O)[C@@H](O)C(=O)O	0.12 ± 0.01 ^c mg/L

Proceed to the following item.
Data request: Consider the compound shown here: O=c1c(O[C@@H]2O[C@H](CO)[C@@H](O)[C@H](O)[C@H]2O)c(-c2ccc(O)c(O)c2)oc2cc(O)cc(O)c12 [Q3G, quercetin-3-glucoside] What is its recorded Apical Side 180 min?
Data returned: 0.015 ± 0.001 ^d mg/L

----------
test system: Caco-2 cell monolayer; test: Caco-2 monolayer transport (bioavailability) study, AB and BA directions; format: in vitro ADME, Homo sapiens; settings: AB experiment, donor side, S1 (15 mg/mL GSE), 0 min
Marks after values point to notes of the source that are not given here.
Listing of entries alongside the reported Apical Side 0 min.

In the examples that follow, each entry is paired with its recorded Apical Side 0 min.
compound	endpoint.name	recorded.measurement
O=c1c(O[C@@H]2O[C@H](CO)[C@@H](O)[C@H](O)[C@H]2O)c(-c2ccc(O)c(O)c2)oc2cc(O)cc(O)c12 [Q3G, quercetin-3-glucoside]	Apical Side 0 min	0.23 ± 0.01 ^a mg/L
O=C(O)c1cc(O)c(O)c(O)c1	Apical Side 0 min	6.1 ± 0.5 ^a mg/L

Data request: State the recorded Apical Side 0 min for this entry: O=c1c(OC2O[C@H](CO)[C@H](O)[C@H](O)[C@H]2O)c(-c2ccc(O)cc2)oc2cc(O)cc(O)c12 (some centres unmarked) [K3Gal, kaempferol-3-galactoside]
Data returned: 0.63 ± 0.02 ^a mg/L

Data request: What value of Apical Side 0 min has been recorded for this entry: OC[C@H]1O[C@@H](Oc2cc3c(O)cc(O)cc3[o+]c2-c2cc(O)c(O)c(O)c2)[C@H](O)[C@@H](O)[C@@H]1O [D3G, delphinidin-3-O-glucoside]
Data returned: 2.1 ± 0.2 ^a mg/L

Data request: // query Apical Side 0 min value for entry COc1cc(-c2[o+]c3cc(O)cc(O)c3cc2O[C@@H]2O[C@H](CO)[C@@H](O)[C@H](O)[C@H]2O)cc(O)c1O [Pet3G, petunidin-3-O-glucoside]
Data returned: 1.8 ± 0.1 ^a mg/L

----------
tested on: Caco-2 cell monolayer; assay: Caco-2 monolayer transport (bioavailability) study, AB and BA directions; assay type: in vitro ADME, Homo sapiens; settings: AB experiments, basolateral side

molecule	detection at the acceptor side
COc1cc(-c2[o+]c3cc(O)cc(O)c3cc2O[C@@H]2O[C@H](CO)[C@@H](O)[C@H](O)[C@H]2O)cc(OC)c1O [M3G, malvidin-3-O-glucoside]	detected
O=C(O)c1cc(O)c(O)c(O)c1	detected
O=c1c(O[C@@H]2O[C@H](CO)[C@@H](O)[C@H](O)[C@H]2O)c(-c2ccc(O)cc2)oc2cc(O)cc(O)c12 [K3G, kaempferol-3-glucoside]	detected
O=C(/C=C/c1ccc(O)c(O)c1)O[C@@H](C(=O)O)[C@@H](O)C(=O)O	detected

Cited source: paper PMC12248599
